Recorded values, source ChEMBL document CHEMBL3616451.

- protocol_description: Cytotoxicity against human PANC1 cells after 48 hrs by MTT assay
- Format: cell-based, PANC-1
- run_conditions: panc-1, 48 h
Field: GI90. Provide a value for each of the molecules that follow.

{"molecule": "CC(=O)O[C@H]1C(=O)[C@@]2(C)[C@H]([C@H](OC(=O)c3ccccc3)[C@]3(O)C[C@H](OC(=O)[C@H](O)[C@@H](NC(=O)c4ccccc4)c4ccccc4)C(C)=C1C3(C)C)[C@]1(OC(C)=O)CO[C@@H]1C[C@@H]2O", "GI90": "5.715 µg/mL"}
{"molecule": "COC(=O)CC[C@@H](C)[C@H]1CC[C@H]2[C@H]3[C@H]([C@H](NC(=O)C(CO)NC(=O)OC(C)(C)C)C(=O)[C@]12C)[C@@]1(C)CC[C@@H](OC(C)=O)C[C@H]1C[C@H]3OC(C)=O (stereo partly drawn)", "GI90": "> 100 µg/mL"}

Q: So what's the measured GI90 for this one? CCCCCCc1cn([C@@H]2C(=O)[C@]3(C)[C@@H]([C@H](C)CCC(=O)OC)CC[C@H]3[C@H]3[C@H]2[C@@]2(C)CC[C@@H](OC(C)=O)C[C@H]2C[C@H]3OC(C)=O)nn1
A: > 100 µg/mL

====

Field: IC90. Provide a value for each of the compounds that follow.
- Tested on: Mycobacterium tuberculosis
- protocol_description: Anti-tubercular activity against rifampicin, isoniazid, ethambutol and pyrazinamide-sensitive dormant phage of Mycobacterium tuberculosis H37Ra ATCC 25177 infected in human THP1 cells by neutral red assay
- Assay type: functional, organism-based
- run_conditions: H37Ra ATCC 25177, THP-1
Numbers only, in µg/mL.

Below is a list of compounds. For each, state its recorded IC90.
1. NNC(=O)c1ccncc1
2. CCCCCCc1cn([C@@H]2C(=O)[C@]3(C)[C@@H]([C@H](C)CCC(=O)OC)CC[C@H]3[C@H]3[C@H]2[C@@]2(C)CC[C@@H](OC(C)=O)C[C@H]2C[C@H]3OC(C)=O)nn1
3. COC(=O)CC[C@@H](C)[C@H]1CC[C@H]2[C@H]3[C@H]([C@H](n4nnc5ccccc54)C(=O)[C@]12C)[C@@]1(C)CC[C@@H](OC(C)=O)C[C@H]1C[C@H]3OC(C)=O
4. CO[C@H]1/C=C/O[C@@]2(C)Oc3c(C)c(O)c4c(O)c(c(/C=N/N5CCN(C)CC5)c(O)c4c3C2=O)NC(=O)/C(C)=C\C=C\[C@H](C)[C@H](O)[C@@H](C)[C@@H](O)[C@@H](C)[C@H](OC(C)=O)[C@@H]1C

A:
1. 0.0078
2. 1.55
3. 8.16
4. 0.048

====

- protocol_description: Cytotoxicity against human A549 cells after 48 hrs by MTT assay
- Type: cell-based
- run_conditions: A549 cells
metric_name: GI50 at 48 h (µg/mL)
Numbers only, in µg/mL.

Q: So what's the measured GI50 at 48 h for this one? COC(=O)CC[C@@H](C)[C@H]1CC[C@H]2[C@H]3[C@H]([C@H](n4nnc5ccccc54)C(=O)[C@]12C)[C@@]1(C)CC[C@@H](OC(C)=O)C[C@H]1C[C@H]3OC(C)=O
A: 20

====

- Tested on: Mycobacterium tuberculosis
- protocol_description: Anti-tubercular activity against rifampicin, isoniazid, ethambutol and pyrazinamide-sensitive Mycobacterium tuberculosis H37Ra ATCC 25177 assessed as growth inhibition at 10 ug/ml by XRMA method relative to control
- Type: functional
- run_conditions: read-out: GI
Please mark Yes if the recorded inhibition of growth at 10 µg/mL is equal to or greater than 70%, and No if it falls below.

{"molecule": "CCCCCCc1cn([C@@H]2C(=O)[C@]3(C)[C@@H]([C@H](C)CCC(=O)OC)CC[C@H]3[C@H]3[C@H]2[C@@]2(C)CC[C@@H](OC(C)=O)C[C@H]2C[C@H]3OC(C)=O)nn1", "class_label": "Yes"}
{"molecule": "COC(=O)CC[C@@H](C)[C@H]1CC[C@H]2[C@H]3[C@H]([C@H](NC(=O)[C@H]4CCCN4C(=O)OC(C)(C)C)C(=O)[C@]12C)[C@@]1(C)CC[C@@H](OC(C)=O)C[C@H]1C[C@H]3OC(C)=O", "class_label": "Yes"}
{"molecule": "C[C@H](CCC(=O)O)[C@H]1CC[C@H]2[C@@H]3[C@H](O)C[C@@H]4C[C@H](O)CC[C@]4(C)[C@H]3C[C@H](O)[C@]12C", "class_label": "No"}
{"molecule": "COC(=O)CC[C@@H](C)[C@H]1CC[C@H]2[C@H]3[C@H]([C@H](NC(=O)[C@H]4CCCN4)C(=O)[C@]12C)[C@@]1(C)CC[C@@H](OC(C)=O)C[C@H]1C[C@H]3OC(C)=O", "class_label": "No"}

Q: Answer whether inhibition of growth at 10 µg/mL of COC(=O)CC[C@@H](C)[C@H]1CC[C@H]2[C@H]3[C@H]([C@H](NC(=O)C4CN4)C(=O)[C@]12C)[C@@]1(C)CC[C@@H](OC(C)=O)C[C@H]1C[C@H]3OC(C)=O (stereo not given in full) is greater than or equal to 70%.
A: No

====

- System: Mycobacterium tuberculosis
- protocol_description: Anti-tubercular activity against rifampicin, isoniazid, ethambutol and pyrazinamide-sensitive active phage of Mycobacterium tuberculosis H37Ra ATCC 25177 by serial dilution method
- Format: functional, organism-based
Mark MET only for IC90 values smaller than 3 µg/mL; exact matches and larger values are NOT MET.

Answered cases to consult:
{"compound": "COC(=O)CC[C@@H](C)[C@H]1CC[C@H]2[C@H]3[C@H]([C@H](NC(=O)[C@H]4CCCN4C(=O)OC(C)(C)C)C(=O)[C@]12C)[C@@]1(C)CC[C@@H](OC(C)=O)C[C@H]1C[C@H]3OC(C)=O", "class_label": "NOT MET"}
{"compound": "COC(=O)CC[C@@H](C)[C@H]1CC[C@H]2[C@H]3[C@H]([C@H](NC(=O)C(CO)NC(=O)OC(C)(C)C)C(=O)[C@]12C)[C@@]1(C)CC[C@@H](OC(C)=O)C[C@H]1C[C@H]3OC(C)=O (stereo partly specified)", "class_label": "NOT MET"}
{"compound": "CO[C@H]1/C=C/O[C@@]2(C)Oc3c(C)c(O)c4c(O)c(c(/C=N/N5CCN(C)CC5)c(O)c4c3C2=O)NC(=O)/C(C)=C\\C=C\\[C@H](C)[C@H](O)[C@@H](C)[C@@H](O)[C@@H](C)[C@H](OC(C)=O)[C@@H]1C", "class_label": "MET"}
{"compound": "CCCCCCc1cn([C@@H]2C(=O)[C@]3(C)[C@@H]([C@H](C)CCC(=O)OC)CC[C@H]3[C@H]3[C@H]2[C@@]2(C)CC[C@@H](OC(C)=O)C[C@H]2C[C@H]3OC(C)=O)nn1", "class_label": "MET"}
{"compound": "NNC(=O)c1ccncc1", "class_label": "MET"}

Now consider a different compound.
Q: Hi there! Is IC90 for COC(=O)CC[C@@H](C)[C@H]1CC[C@H]2[C@H]3[C@H]([C@H](n4nnc5ccccc54)C(=O)[C@]12C)[C@@]1(C)CC[C@@H](OC(C)=O)C[C@H]1C[C@H]3OC(C)=O below 3 µg/mL, do you know?
A: NOT MET

====

- protocol_description: Cytotoxicity against human PANC1 cells after 48 hrs by MTT assay
- Format: cell-based, PANC-1
- run_conditions: panc-1, 48 h
metric_name: GI90

{"sample_smiles": "COC(=O)CC[C@@H](C)[C@H]1CC[C@H]2[C@H]3[C@H]([C@H](n4nnc5ccccc54)C(=O)[C@]12C)[C@@]1(C)CC[C@@H](OC(C)=O)C[C@H]1C[C@H]3OC(C)=O", "GI90": "> 100 µg/mL"}

Then this compound:
Q: So what's the measured GI90 for this one? COC(=O)CC[C@@H](C)[C@H]1CC[C@H]2[C@H]3[C@H]([C@H](NC(=O)[C@H]4CCCN4C(=O)OC(C)(C)C)C(=O)[C@]12C)[C@@]1(C)CC[C@@H](OC(C)=O)C[C@H]1C[C@H]3OC(C)=O
A: > 100 µg/mL

====

- protocol_description: Cytotoxicity against human PANC1 cells after 48 hrs by MTT assay
- Format: cell-based, PANC-1
- run_conditions: PANC-1 cells
metric_name: GI50 at 48 h (mg/L)
Numbers only, in mg/L.

{"sample_smiles": "COC(=O)CC[C@@H](C)[C@H]1CC[C@H]2[C@H]3[C@H]([C@H](n4nnc5ccccc54)C(=O)[C@]12C)[C@@]1(C)CC[C@@H](OC(C)=O)C[C@H]1C[C@H]3OC(C)=O", "experimental_value": 50}

Then this molecule:
Q: So what's the measured GI50 at 48 h for this one? COC(=O)CC[C@@H](C)[C@H]1CC[C@H]2[C@H]3[C@H]([C@H](NC(=O)[C@H]4CCCN4C(=O)OC(C)(C)C)C(=O)[C@]12C)[C@@]1(C)CC[C@@H](OC(C)=O)C[C@H]1C[C@H]3OC(C)=O
A: 15
